Target: ASGPR (Homo sapiens (Human))
Sequence (P07306 whole entry): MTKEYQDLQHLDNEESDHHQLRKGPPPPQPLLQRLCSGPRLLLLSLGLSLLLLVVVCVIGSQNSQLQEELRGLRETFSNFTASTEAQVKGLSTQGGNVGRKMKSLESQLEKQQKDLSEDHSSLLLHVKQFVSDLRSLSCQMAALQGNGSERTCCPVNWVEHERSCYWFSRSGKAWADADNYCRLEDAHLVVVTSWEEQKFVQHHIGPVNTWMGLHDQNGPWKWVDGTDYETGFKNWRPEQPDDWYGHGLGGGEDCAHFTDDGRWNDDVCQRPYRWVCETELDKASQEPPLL
Experiment: Affinity to ASGPR measured by surface plasmon resonance (SPR)
Format: binding
Conditions: ASGPR ligands, Table 4; numeric lower bounds; read-out: ASGPR_PR Binding KD
pKd: −log10 of the molar value.
# maps each entry to its pKd

Example results:
OC[C@H]1OC[C@@H](Nc2ccncn2)[C@@H](O)[C@H]1O [Compound A149] :: < 4.70
COC(=O)[C@@H]1CO[C@H](CO)[C@H](O)[C@@H]1O [Compound A401] :: < 3.70
Cn1cc([C@@H]2CO[C@H](CO)[C@H](O)[C@@H]2O)cn1 [Compound A394] :: < 3.70
COc1cc(N2CCN(C)CC2)nc(N[C@H]2CO[C@H](CO)[C@H](O)[C@@H]2O)n1 [Compound A350] :: < 4.70
CSc1cc(N[C@H]2CO[C@H](CO)[C@H](O)[C@@H]2O)nc(C#N)n1 [Compound A351] :: < 4.70
CN1CCN(C[C@@H]2CO[C@H](CO)[C@H](O)[C@@H]2O)CC1 [Compound A390] :: < 3.70
COc1cc(N[C@H]2CO[C@H](CO)[C@H](O)[C@@H]2O)nc(C#N)n1 [Compound A333] :: < 5.00

Known value: ASGPR (Homo sapiens (Human)) pKd of the compound OC[C@H]1OC[C@H](Nc2ccc(Cl)nn2)[C@@H](O)[C@H]1O [Compound A316] equals < 4.70
